study-target: Inadl_2, Q8NI35
Sequence (Q8NI35 238-335): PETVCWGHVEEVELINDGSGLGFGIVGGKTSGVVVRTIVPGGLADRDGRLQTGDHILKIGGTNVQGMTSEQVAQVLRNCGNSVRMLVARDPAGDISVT
procedure-text: holdup assay
Design: key: below the threshold = too weak to quantify, mostly under pKd 3.1 to 4
test-conditions: plain residues with an end cap or a label only (N-terminal biotin on a linker: ahx)

{"binder": "HTHSYIETHV [CNKSR2, Q8WXI2]", "pKd": "below the threshold"}
{"binder": "QNTDDVQTSF [ACE2, Q9BYF1]", "pKd": "below the threshold"}
{"binder": "QDEKVKESYV [ABCA1, O95477]", "pKd": 3.93}
{"binder": "EKQAKGDTEF [CACYBP, Q9HB71]", "pKd": "below the threshold"}
